Known pIC50 of a selection of molecules
SYSTEM: h-jak3(810-1124) (JAK3: Recombinant human kinase domain) (Homo sapiens)
Construct: jak3(810- 1124)-sf9-c
TEST PROTOCOL: Determination of IC50 of Janus Kinase (JAK) inhibition: JAK3 radioactive end-point 33P-ATP kinase assay
TEST CONTEXT: no additive; ATP 1.5 uM, peptide 50 uM, 20 minutes, room temperature; read-out: Ic50 h-jak3(810-1124)-sf9-c: no additive
Lab note — pIC50 values are minus log10 of concentrations in M.

SMILES REPRESENTATION: C[C@@H](NC(=O)c1c[nH]c2ncc(-c3cc(-n4cccn4)ccn3)nc12)C(=O)N1CC(C#N)C1
pIC50: 8.02
--
SMILES REPRESENTATION: N#CC1CN(C(=O)[C@H](NC(=O)c2c[nH]c3ncc(-c4ccc(C(F)(F)F)cc4)nc23)C2CC2)C1
pIC50: 9.42
--
SMILES REPRESENTATION: CC(C)(C)[C@@H](NC(=O)c1c[nH]c2ncc(-c3cn(C4CCCC4)cn3)nc12)C(=O)N1CCC(C#N)CC1
pIC50: 8.43

Turning now to a further record.
Request: Quick check: pIC50 on h-jak3(810-1124) (JAK3: Recombinant human kinase domain) (Homo sapiens), item O=C(N[C@@H](C(=O)N1CCS(=O)(=O)CC1)C1CC1)c1c[nH]c2ncc(C3CC3)nc12 ?
Result: 8.91

* * *

SYSTEM: h-jak3(810-1124) (JAK3: Recombinant human kinase domain) (Homo sapiens)
Construct: jak3(810- 1124)-sf9-c
TEST PROTOCOL: Determination of IC50 of Janus Kinase (JAK) inhibition: JAK3 radioactive end-point 33P-ATP kinase assay
TEST CONTEXT: no additive; ATP 1.5 uM, peptide 50 uM, 20 minutes, room temperature; read-out: Ic50 h-jak3(810-1124)-sf9-c: no additive
Below: a set of entries, each annotated with reported log10 of IC50.
// units: nM (pre-log); metric: IC50; scale: log10

Below are worked cases with known answers.
SMILES REPRESENTATION: N#CC1CN(C(=O)[C@H](NC(=O)c2c[nH]c3ncc(-c4cn(-c5cc(F)ccc5F)cn4)nc23)C2CC2)C1
QUANTITATIVE READOUT: -0.31
--
SMILES REPRESENTATION: CCn1cc(-c2cnc3[nH]cc(C(=O)N[C@@H](C(=O)N4CCCC4)C4(C)CC4)c3n2)cn1
QUANTITATIVE READOUT: -0.06
--
SMILES REPRESENTATION: CC(C)(C)[C@@H](NC(=O)c1c[nH]c2ncc(-c3cc(OC4CCCC4)ccn3)nc12)C(=O)N1CCC(C#N)CC1
QUANTITATIVE READOUT: 2.05

Pending molecule:
Request: Dear colleague, I am looking for the recorded log10 of IC50 of the following molecule: N#CC1CCN(C(=O)[C@H](NC(=O)c2c[nH]c3ncc(-c4cc(-c5ccccc5)ccn4)nc23)C2CC2)CC1
Result: 0.65

* * *

SYSTEM: h-jak3(810-1124) (JAK3: Recombinant human kinase domain) (Homo sapiens)
Construct: jak3(810- 1124)-sf9-c
TEST PROTOCOL: Determination of IC50 of Janus Kinase (JAK) inhibition: JAK3 radioactive end-point 33P-ATP kinase assay
TEST CONTEXT: no additive; ATP 1.5 uM, peptide 50 uM, 20 minutes, room temperature; read-out: Ic50 h-jak3(810-1124)-sf9-c: no additive
Here the recorded pIC50 is given for each entry.
Note on pIC50: it is the negative log10 of concentration, concentration in mol/L.

COMPOUND: Cc1nc(-c2cnc3[nH]cc(C(=O)N[C@@H](C(=O)N4CC(C#N)C4)C4CC4)c3n2)cn1CC(F)(F)F [Example I-165]
SYSTEM: h-jak3(810-1124) (JAK3: Recombinant human kinase domain) (Homo sapiens)
pIC50: 9.17
--
COMPOUND: CCn1cc(-c2cnc3[nH]cc(C(=O)N[C@@H](C(=O)N4CCCC4)C4CC4)c3n2)cn1 [Example I-27]
SYSTEM: h-jak3(810-1124) (JAK3: Recombinant human kinase domain) (Homo sapiens)
pIC50: 8.71

Request: Given the entry CCn1cc(-c2cnc3[nH]cc(C(=O)N[C@@H](C(=O)N4CCC(O)(C(F)(F)F)CC4)C4CC4)c3n2)cn1 [Example I-146] , report its measured pIC50.
Result: 9.42

* * *

SYSTEM: h-jak3(810-1124) (JAK3: Recombinant human kinase domain) (Homo sapiens)
Construct: jak3(810- 1124)-sf9-c
TEST PROTOCOL: Determination of IC50 of Janus Kinase (JAK) inhibition: JAK3 radioactive end-point 33P-ATP kinase assay
TEST CONTEXT: no additive; ATP 1.5 uM, peptide 50 uM, 20 minutes, room temperature; read-out: Ic50 h-jak3(810-1124)-sf9-c: no additive
# log10 IC50 per record follows
Hey, these are logged values: log10 of IC50, nM being the unit before logging.

COMPOUND: C[C@@H](NC(=O)c1c[nH]c2ncc(-c3cccc(C(=O)NCC4CC4)c3)nc12)C(=O)N1CC(C#N)C1
QUANTITATIVE READOUT: -0.01
--
COMPOUND: CC(C)(C)[C@@H](NC(=O)c1c[nH]c2ncc(C3CC3)nc12)C(=O)N1CCC(O)(c2ccccc2)CC1
QUANTITATIVE READOUT: -0.06
--
COMPOUND: CC1(O)CCN(C(=O)[C@H](NC(=O)c2c[nH]c3ncc(C4CC4)nc23)C(C)(C)C)CC1
QUANTITATIVE READOUT: 0.52

Request: Find the recorded log10 IC50 belonging to CC(C)(C)[C@@H](NC(=O)c1c[nH]c2ncc(C3CC3)nc12)C(=O)N1CC[C@H](C#N)C1 and report it.
Result: 0.09

Request: What value of log10 IC50 has been recorded for this entry: Cn1cc(-c2cnc3[nH]cc(C(=O)N[C@@H](C(=O)N4CC5(COC5)C4)C4CC4)c3n2)cn1
Result: -0.07

Request: Could you tell me which log10 IC50 is on file for CC(C)(C)[C@@H](NC(=O)c1c[nH]c2ncc(OCC(F)(F)F)nc12)C(=O)N1CCC(C#N)CC1 ?
Result: 1.21

Request: I would be grateful if you could share the reported log10 IC50 for Cn1cc(-c2cnc3[nH]cc(C(=O)N[C@@H](C(=O)N4CC(C)(C#N)C4)C4CC4)c3n2)cn1 .
Result: -0.33

Request: Requested read-out: log10 IC50. Entry: N#CC1CN(C(=O)[C@H](NC(=O)c2c[nH]c3ncc(N4Cc5c(Cl)cccc5C4=O)nc23)C2CC2)C1
Result: 0.44

* * *

SYSTEM: h-jak3(810-1124) (JAK3: Recombinant human kinase domain) (Homo sapiens, UniProt P52333)
Construct: jak3(810- 1124)-sf9-c
Sequence (P52333 810-1124): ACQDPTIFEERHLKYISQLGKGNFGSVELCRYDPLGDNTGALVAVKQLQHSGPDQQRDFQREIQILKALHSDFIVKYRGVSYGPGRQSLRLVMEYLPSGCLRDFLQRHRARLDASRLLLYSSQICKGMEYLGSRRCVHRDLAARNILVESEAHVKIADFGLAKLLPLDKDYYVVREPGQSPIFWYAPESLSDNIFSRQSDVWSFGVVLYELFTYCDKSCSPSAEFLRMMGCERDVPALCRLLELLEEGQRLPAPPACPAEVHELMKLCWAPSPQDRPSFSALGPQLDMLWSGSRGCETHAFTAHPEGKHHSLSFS
TEST PROTOCOL: Determination of IC50 of Janus Kinase (JAK) inhibition: JAK3 radioactive end-point 33P-ATP kinase assay
TEST CONTEXT: no additive; ATP 1.5 uM, peptide 50 uM, 20 minutes, room temperature; read-out: Ic50 h-jak3(810-1124)-sf9-c: no additive
OUTCOME MEASURE: pIC50
Here pIC50 is given on a logarithmic scale as minus log10 of the concentration in mol/L.

SMILES REPRESENTATION: COc1ccnc2cc(-c3cnc4[nH]cc(C(=O)N[C@H](C)C(=O)N5CC(C#N)C5)c4n3)sc12
pIC50: 8.08
//
SMILES REPRESENTATION: CC(C)(C)[C@@H](NC(=O)c1c[nH]c2ncc(-c3cc(C(F)(F)F)ccn3)nc12)C(=O)N1CCC(C#N)CC1
pIC50: 8.22

Next:
Request: Reported pIC50, molecule CCn1cc(-c2cnc3[nH]cc(C(=O)N[C@@H](C(=O)N4CCC(C)(O)CC4)C(C)(C)C)c3n2)cn1 : ____
Result: 9.17

* * *

As shown below, each of these compounds has a reported melting point value.

COMPOUND: CC(C)[C@@H](NC(=O)c1c[nH]c2ncc(C3CC3)nc12)C(=O)N1CCOCC1
melting point: 154 to 156 °C

Request: // melting point lookup, key: N#CC1CN(C(=O)[C@H](NC(=O)c2c[nH]c3ncc(-c4ccccc4)nc23)C2CC2)C1
Result: 200 to 202 °C

Request: Returns the measured melting point for the input compound. Input: CC(C)(C)[C@@H](NC(=O)c1c[nH]c2ncc(C3CC3)nc12)C(=O)N1CCC(C#N)CC1
Result: 249 to 251 °C

Request: Please look up its melting point: N#CC1CN(C(=O)[C@H](NC(=O)c2c[nH]c3ncc(-c4ccc(C(F)(F)F)cc4)nc23)C2CC2)C1
Result: 207 to 209 °C

Request: Recorded melting point of Cc1nc(-c2cnc3[nH]cc(C(=O)N[C@@H](C(=O)N4CC(C#N)C4)C4CC4)c3n2)cn1-c1ccccc1 , please.
Result: 175 to 179 °C

Request: So what's the measured melting point for this one? Cc1nc(-c2cnc3[nH]cc(C(=O)N[C@@H](C(=O)N4CC(C#N)C4)C(C)(C)C)c3n2)cn1-c1cccc(F)c1
Result: 171 to 176 °C

Request: Name the reported melting point value associated with the compound CC(C)[C@@H](NC(=O)c1c[nH]c2ncc(C3CC3)nc12)C(=O)N1CCCC1
Result: 171 to 172.1 °C

Request: What value of melting point has been reported for the following compound? N#CC1CN(C(=O)[C@H](NC(=O)c2c[nH]c3ncc(-c4ccc(N5CCOCC5)cc4)nc23)C2CC2)C1
Result: 186 to 192 °C

Request: Quick check: melting point of CCn1cc(-c2cnc3[nH]cc(C(=O)N[C@@H](C(=O)N4CCCC4)C4(C)CC4)c3n2)cn1 ?
Result: 218 to 220 °C

Request: Which melting point is listed for CN1CCN(c2ccc(-c3cnc4[nH]cc(C(=O)N[C@@H](C(=O)N5CC(C#N)C5)C5CC5)c4n3)cc2)CC1 ?
Result: 178 to 185 °C

Request: Query: melting point; subject: CN(C)c1ccc(-c2cnc3[nH]cc(C(=O)N[C@@H](C(=O)N4CC(C#N)C4)C4CC4)c3n2)cc1
Result: 175 to 180 °C

Request: Give its melting point value. Item: CC[C@@H](NC(=O)c1c[nH]c2ncc(C3CC3)nc12)C(=O)N1CCCC1
Result: 240.9 to 242.5 °C

Request: Field request: melting point | item: Cc1nc(-c2cnc3[nH]cc(C(=O)N[C@@H](C(=O)N4CC(C#N)C4)C(C)(C)C)c3n2)cn1-c1cc(F)cc(F)c1
Result: 187 to 190 °C

Request: Item under review: CCn1cc(-c2cnc3[nH]cc(C(=O)N[C@@H](C(=O)N4CCC(C)(C#N)C4)C(C)(C)C)c3n2)cn1 (stereo partly shown) . Reported melting point?
Result: 228 to 230 °C

Request: Which melting point reading was recorded for the compound CCn1cc(-c2cnc3[nH]cc(C(=O)N[C@@H](C(=O)N4CCCC4)C4CC4)c3n2)cn1 ?
Result: 210 to 212 °C

Request: melting point for O=C(N[C@@H](C(=O)N1CCCC1)C1CC1)c1c[nH]c2ncc(C3CC3)nc12 ?
Result: 254 to 256 °C

All figures here come from patent US8518945B2.
